# Assay Method Text: Thermo Scientific Hypersil GOLD aQ, 100 × 2.1 mm, 1.9 µm, 30 °C, 0.3 mL/min, estimated dead time 0.73 min; A: water + 0.01% formic acid + 4 mM ammonium formate; B: methanol + 0.01% formic acid + 4 mM ammonium formate; gradient (min/%B) 0/5 1/5 8/100 12/100
# Condition Parameters: stereoisomer not certain
Kindly state LC retention time for each of the entries shown.
Numbers only, in min.

As a guide, the following entries are already answered.
Cc1ccc(C(C)NC(=O)C(NC(=O)OC(C)C)C(C)C)cc1 (stereo not drawn) :: 9.73
CC1(C)C(C(=O)OC(C#N)c2cccc(Oc3ccccc3)c2)C1(C)C (stereo not drawn) :: 11
CCS(=O)(=O)Cc1ccccc1OC(=O)NC :: 7
CCSCCSP(=O)(OC)OC :: 8.74
CCC(CC)Nc1c([N+](=O)[O-])cc(C)c(C)c1[N+](=O)[O-] :: 11.1

Hey, quick one: what's LC retention time for each of these?
1. CNC(=O)Oc1cc(C)c(SC)c(C)c1
2. CCCN(CC)CC1COC2(CCC(C(C)(C)C)CC2)O1 (stereo not drawn)
3. CCOP(=S)(OCC)SCSP(=S)(OCC)OCC
4. COP(N)(=O)SC (stereo not drawn)
5. CC(=O)OCC12CC(OC(=O)CC(C)C)C(C)=CC1OC1C(O)C(O)C2(C)C12CO2 (stereo not drawn)
6. COC(=O)NC(=S)Nc1ccccc1NC(=S)NC(=O)OC
7. CCOP(=S)(Oc1ccc(C#N)cc1)c1ccccc1 (stereo not drawn)

[8.76, 9.58, 10.8, 1.58, 8.35, 8.31, 8.72]

Here are 4 molecules. What values of LC retention time were reported for them?
1. CNC(=O)Oc1cc(C)cc(C(C)C)c1
2. CSC(C)=NOC(=O)N(C)SN(C)C(=O)ON=C(C)SC
3. COC(=O)c1ccccc1S(=O)(=O)NC(=O)Nc1nc(C)nc(OC)n1
4. CCS(=O)(=O)CCSP(=O)(OC)OC

1: 9.52; 2: 8.88; 3: 8.43; 4: 6.13
